These entries and their values trace back to patent US10300071B2.

- targetUnderTest: Mtb AccD6 (Mycobacterium tuberculosis)
- protocolText: biochemical
- Assay type: biochemical
reportedProperty: IC50 (nM)
API: value field is a number in nM; no unit string.

Value of IC50 reported for the compound C[C@@H](Oc1ccc(Oc2cnc3cc(Cl)ccc3n2)cc1)C(=O)O [quizalofop-p, reference compound] is 800

----------
- targetUnderTest: Mtb AccD6 (Mycobacterium tuberculosis, UniProt P9WQH5)
- Sequence (P9WQH5 whole entry, looked up): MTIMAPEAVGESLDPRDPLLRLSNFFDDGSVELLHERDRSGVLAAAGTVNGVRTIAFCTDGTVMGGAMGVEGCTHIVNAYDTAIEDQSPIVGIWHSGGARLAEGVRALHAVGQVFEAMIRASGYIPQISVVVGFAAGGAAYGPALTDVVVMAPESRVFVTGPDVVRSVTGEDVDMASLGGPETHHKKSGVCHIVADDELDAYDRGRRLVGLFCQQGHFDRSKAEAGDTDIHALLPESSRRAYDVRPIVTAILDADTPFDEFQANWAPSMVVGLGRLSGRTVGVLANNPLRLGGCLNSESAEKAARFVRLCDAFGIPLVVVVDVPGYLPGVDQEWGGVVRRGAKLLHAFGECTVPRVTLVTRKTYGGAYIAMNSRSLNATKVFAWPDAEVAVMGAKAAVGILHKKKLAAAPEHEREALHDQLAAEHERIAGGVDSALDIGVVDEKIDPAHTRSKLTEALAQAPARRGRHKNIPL
- protocolText: biochemical
- Type: biochemical
- experimentalConditions: read-out: inhibition at 20 uM
reportedProperty: inhibition at 20 µM (%)
Give the quantity in %, number only.

Worked examples, 5 compounds total:
COC(=O)/C=C/c1ccc(Oc2nc3ccc(Cl)cc3s2)cc1 ... 30
COc1ccc2nc(Oc3ccc(NC(=O)NC(C)C)cc3)sc2c1 ... 19
O=C(O)CCc1ccc(Oc2nc3ccc(Cl)cc3s2)cc1 ... 40
CC(C)(C)OC(=O)Nc1ccc(Oc2nc3ccc(F)cc3s2)cc1 ... 17
CC(C)NC(=O)Nc1ccc(Oc2nc3ccc(Cl)cc3s2)nn1 ... 18

Moving on to the next compound.
Entry NCCC(=O)Nc1ccc(Oc2nc3ccc(F)cc3s2)cc1 , tested on Mtb AccD6 (Mycobacterium tuberculosis, UniProt P9WQH5), has a reported inhibition at 20 µM of 20
